# Tested on: SNB-75
# testMethodNotes: NCI tumour cell line growth inhibition, 48 h
Activity calls are given as the source filed them. Rule as the data show it: active = GI50 up to about 1.1 µM and inactive = higher.
attributeMeasured: GI50

Use the examples below as a reference point.
| molecule | testedOn | attributeMeasured | result |
| --- | --- | --- | --- |
| COc1ccc(C2Oc3ccc(O)cc3[C@@H]2C)cc1OC (some centres not stated) | SNB-75 | GI50 | 30.2 µM (inactive) |
| CC(Oc1ccccc1)C(=O)NNC(=O)OC(C)(C)C (configuration not stated) | SNB-75 | GI50 | > 100 µM (inactive) |
| CC1CN1C(=O)NCCCCCCNC(=O)N1CC1C (configuration not stated) | SNB-75 | GI50 | 62.7 µM (inactive) |
| NC1N=Nc2ccccc21 (configuration not stated) | SNB-75 | GI50 | > 100 µM (inactive) |
| O=C1c2ccccc2S(=O)(=O)c2ccccc21 | SNB-75 | GI50 | > 100 µM (inactive) |

Sure, the documented GI50 for CN(C)C(=O)OC(Cn1cncn1)c1ccc(Cl)cc1Cl (configuration not stated) is > 100 µM (inactive)

Sure, the documented GI50 for CCOC(=O)NC(=O)c1cn(CCCCCCOC(=O)NCCCCCCNC(=O)OCCCCCCn2cc(C(=O)NC(=O)OCC)c(=O)[nH]c2=O)c(=O)[nH]c1=O is > 100 µM (inactive)

Sure, the documented GI50 for Cc1ccc2c(c1)CN1c3ccc(C)cc3CN2C1c1ccccc1O is 0.667 µM (active)

Sure, the documented GI50 for CC(NNC(=O)c1cc[n+]([BH2-]C#N)cc1)c1cccc(F)c1 (configuration not stated) is > 100 µM (inactive)

Sure, the documented GI50 for Cc1ccc(S(=O)(=O)NC(C(=O)O)C(C)C)cc1 (configuration not stated) is > 100 µM (inactive)

Sure, the documented GI50 for SCCSCCCSCCS is 59.3 µM (inactive)

Sure, the documented GI50 for Cc1nc2nnc(CCCCCCCCc3nnc4nc(C)[nH]n34)n2[nH]1 is > 100 µM (inactive)
